Where do the numbers come from? From patent US8536216B2.

Listed here are compounds together with their documented Amino acid plasma level.
Settings: human, in vivo, 30 min
The reply should be a number, written without any unit.

| smiles record | parameter measured | numeric readout |
| --- | --- | --- |
| CC(C)C[C@H](N)C(=O)O | Amino acid plasma level | 109 |

-- ask Give its Amino acid plasma level value. Item: CSCC[C@H](N)C(=O)O
-- reply 32

-- ask Give its Amino acid plasma level value. Item: C[C@@H](O)[C@H](N)C(=O)O
-- reply 137

-- ask Give its Amino acid plasma level value. Item: CC(C)[C@H](N)C(=O)O
-- reply 294

====

Settings: human, in vivo, 15 min
parameter measured: Amino acid plasma level
The reply should be a number, written without any unit.

| compound | Amino acid plasma level |
| --- | --- |
| CC(C)C[C@H](N)C(=O)O [Leucine] | 68 |
| NCCCC[C@H](N)C(=O)O [Lysine] | 182 |

-- ask Give its Amino acid plasma level value. Item: N[C@@H](Cc1ccccc1)C(=O)O [Phenylalanine]
-- reply 56

====

Listed here are compounds together with their documented Amino acid plasma level.
Settings: human, in vivo, 15 min
The reply should be a number, written without any unit.

| compound | numeric readout |
| --- | --- |
| C[C@@H](O)[C@H](N)C(=O)O [Threonine] | 121 |
| CSCC[C@H](N)C(=O)O [Methionine] | 30 |
| CC[C@H](C)[C@H](N)C(=O)O [Isoleucine] | 156 |

-- ask Give its Amino acid plasma level value. Item: N[C@@H](CS)C(=O)O [Cysteine]
-- reply 54

-- ask Give its Amino acid plasma level value. Item: N=C(N)NCCC[C@H](N)C(=O)O [Arginine]
-- reply 85

-- ask Give its Amino acid plasma level value. Item: N[C@@H](Cc1ccc(O)cc1)C(=O)O [Tyrosine]
-- reply 62

-- ask Give its Amino acid plasma level value. Item: CC(C)[C@H](N)C(=O)O [Valine]
-- reply 256

====

Settings: human, in vivo, 30 min
Listed here are molecules together with their documented Amino acid plasma level.
The reply should be a number, written without any unit.

Record excerpt, results attached:
| molecule | Amino acid plasma level |
| --- | --- |
| N[C@@H](Cc1ccccc1)C(=O)O [Phenylalanine] | 61 |
| NCCCC[C@H](N)C(=O)O [Lysine] | 194 |
| N[C@@H](Cc1ccc(O)cc1)C(=O)O [Tyrosine] | 65 |
| N[C@@H](CS)C(=O)O [Cysteine] | 61 |
| CC[C@H](C)[C@H](N)C(=O)O [Isoleucine] | 162 |

Pending molecule:
-- ask Give its Amino acid plasma level value. Item: N=C(N)NCCC[C@H](N)C(=O)O [Arginine]
-- reply 97

====

Settings: human, in vivo, 60 min
parameter measured: Amino acid plasma level

Record excerpt, results attached:
| smiles record | Amino acid plasma level |
| --- | --- |
| N[C@@H](CS)C(=O)O | 49 ± 7 |
| CSCC[C@H](N)C(=O)O | 27 ± 4 |
| NCCCC[C@H](N)C(=O)O | 179 ± 18 |
| N[C@@H](Cc1ccccc1)C(=O)O | 55 ± 7 |
| CC[C@H](C)[C@H](N)C(=O)O | 147 ± 32 |
| C[C@@H](O)[C@H](N)C(=O)O | 120 ± 16 |
| N[C@@H](Cc1ccc(O)cc1)C(=O)O | 59 ± 7 |
| CC(C)C[C@H](N)C(=O)O | 71 ± 9 |
| N=C(N)NCCC[C@H](N)C(=O)O | 82 ± 16 |

Pending molecule:
-- ask Give its Amino acid plasma level value. Item: CC(C)[C@H](N)C(=O)O
-- reply 249 ± 26
